Values from ChEMBL document CHEMBL1148827

# Organism: Bos taurus
# procedureSummary: Inhibition of bovine neuronal tubulin polymerization at 10 uM
Active and inactive are the calls of the source. No cut-off for these calls is given here.
experimentalReadout: Activity

O=C1C(=O)N(Cc2ccc(-c3ccccc3)cc2)c2c(Br)cc(Br)cc21    Active
Cc1ccc(CN2C(=O)C(=O)c3cc(Br)cc(Br)c32)cc1    Active
O=C1C(=O)N(C/C=C/c2ccccc2)c2c(Br)cc(Br)cc21    Active
O=C1C(=O)N(Cc2ccc(C(F)(F)F)cc2)c2c(Br)cc(Br)cc21    Active

###

Provide the recorded log10 of IC50 for the entries that follow.
# System: Jurkat
# procedureSummary: Cytotoxicity against human Jurkat cells by MTS assay after 24 hrs
# Format: functional, cell-based
Please keep in mind that the values are log10 of IC50 expressed in nM.

Data request: Name the reported log10 of IC50 value associated with the compound O=C1C(=O)N(Cc2ccc(I)cc2)c2c(Br)cc(Br)cc21
Data returned: 2.76

Data request: Then COCCN1C(=O)C(=O)c2cc(Br)cc(Br)c21 ?
Data returned: 3.95

Data request: One more compound: O=C1C(=O)N(Cc2ccc(C(F)(F)F)cc2)c2cc(Br)ccc21
Data returned: 3.72

Data request: How about this compound: O=C1C(=O)N(Cc2ccc(Br)cc2)c2c(Br)cc(Br)cc21
Data returned: 2.80

Data request: Now give it for O=C1C(=O)N(C/C=C/c2ccccc2)c2c(Br)cc(Br)cc21 too.
Data returned: 3.15

Data request: Then this compound: O=C1C(=O)N(Cc2ccc(-c3ccccc3)cc2)c2c(Br)cc(Br)cc21
Data returned: 2.87

Data request: Please answer likewise for COc1cccc(CN2C(=O)C(=O)c3cc(Br)cc(Br)c32)c1
Data returned: 3.30

Data request: Try O=C1C(=O)N(Cc2ccccc2)c2c(Br)cc(Br)cc21 next.
Data returned: 3.06

Data request: Let us now turn to CC(C)(C)c1ccc(CN2C(=O)C(=O)c3cc(Br)cc(Br)c32)cc1
Data returned: 2.82

Data request: Field entry: Cc1ccc(CN2C(=O)C(=O)c3cc(Br)cc(Br)c32)cc1
Data returned: 2.69
